experimentalTarget: C. albicans AOX2 (Candida albicans, UniProt Q9UV71)
Construct: twin-strep tag (pET15b.TS, pTS.CalbAOX2) kept; from E. coli FN102; in self-assembled proteoliposomes
Sequence (Q9UV71 27-365): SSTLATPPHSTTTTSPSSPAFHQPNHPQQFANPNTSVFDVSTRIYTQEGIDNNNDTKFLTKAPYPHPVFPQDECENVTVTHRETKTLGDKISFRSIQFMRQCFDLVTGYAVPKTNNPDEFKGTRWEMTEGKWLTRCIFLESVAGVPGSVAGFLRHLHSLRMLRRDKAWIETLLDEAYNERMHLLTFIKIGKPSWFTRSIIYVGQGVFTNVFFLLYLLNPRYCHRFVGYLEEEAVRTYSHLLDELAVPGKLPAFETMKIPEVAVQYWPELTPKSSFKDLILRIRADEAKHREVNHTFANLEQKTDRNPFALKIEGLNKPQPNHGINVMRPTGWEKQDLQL
protocolDescription: oxygen consumption of NDH-2/AOX proteoliposomes (Oroboros oxygraph), dose-response
Type: biochemical
quantityKind: pIC50
Expect pIC50 as a plain number equal to -log10 of the molar concentration.

# get_value(readout='pIC50', item= "O=C(NO)c1ccccc1O" ) 2.46

* * *

experimentalTarget: C. auris AOX (Candidozyma auris, UniProt A0A0L0NPQ3)
Construct: twin-strep tag (pET15b.TS, pTS.CaAOX) kept; from E. coli FN102; in self-assembled proteoliposomes
Sequence (A0A0L0NPQ3 25-333 limits assumed): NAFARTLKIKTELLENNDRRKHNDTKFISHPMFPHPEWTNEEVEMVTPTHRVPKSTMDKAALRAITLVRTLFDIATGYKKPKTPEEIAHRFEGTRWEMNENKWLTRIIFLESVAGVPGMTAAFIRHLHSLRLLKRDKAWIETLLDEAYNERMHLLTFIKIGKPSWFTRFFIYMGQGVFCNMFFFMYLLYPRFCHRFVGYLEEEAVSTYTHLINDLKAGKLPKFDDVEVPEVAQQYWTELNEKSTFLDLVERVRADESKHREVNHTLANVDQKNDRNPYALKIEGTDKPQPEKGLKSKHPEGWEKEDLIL
protocolDescription: oxygen consumption of NDH-2/AOX proteoliposomes (Oroboros oxygraph), dose-response
Format: biochemical
quantityKind: IC50 (mM)
Quick reminder: number only, in mM, skip the unit.

Given the entry O=C(NO)c1ccccc1O [SHAM] , report its measured IC50. 5

* * *

experimentalTarget: C. auris AOX (Candidozyma auris)
Construct: twin-strep tag (pET15b.TS, pTS.CaAOX) kept; from E. coli FN102; in self-assembled proteoliposomes
protocolDescription: NADH oxidation at […] nm in NDH-2/AOX proteoliposomes, dose-response
Assay type: biochemical
quantityKind: pIC50
Scale: pIC50 equals -log10([C]), with [C] in mol/L.

compound	pIC50
CC(C)=CCC/C(C)=C/Cc1c(O)c(Cl)c(C)c(C=O)c1O [CB, colletochlorin B]	7.26

For the next question, use this compound.
Name the recorded pIC50 for C/C(=C\Cc1c(O)c(Cl)c(C)c(C=O)c1O)CC/C=C(\C)[C@@H]1CC(=O)C(C)(C)O1 [AF, Ascofuranone] . 6.89
